Data origin: patent US10934274B2

target_or_system: TYRO3 (Homo sapiens)
Sequence (Q06418 41-890): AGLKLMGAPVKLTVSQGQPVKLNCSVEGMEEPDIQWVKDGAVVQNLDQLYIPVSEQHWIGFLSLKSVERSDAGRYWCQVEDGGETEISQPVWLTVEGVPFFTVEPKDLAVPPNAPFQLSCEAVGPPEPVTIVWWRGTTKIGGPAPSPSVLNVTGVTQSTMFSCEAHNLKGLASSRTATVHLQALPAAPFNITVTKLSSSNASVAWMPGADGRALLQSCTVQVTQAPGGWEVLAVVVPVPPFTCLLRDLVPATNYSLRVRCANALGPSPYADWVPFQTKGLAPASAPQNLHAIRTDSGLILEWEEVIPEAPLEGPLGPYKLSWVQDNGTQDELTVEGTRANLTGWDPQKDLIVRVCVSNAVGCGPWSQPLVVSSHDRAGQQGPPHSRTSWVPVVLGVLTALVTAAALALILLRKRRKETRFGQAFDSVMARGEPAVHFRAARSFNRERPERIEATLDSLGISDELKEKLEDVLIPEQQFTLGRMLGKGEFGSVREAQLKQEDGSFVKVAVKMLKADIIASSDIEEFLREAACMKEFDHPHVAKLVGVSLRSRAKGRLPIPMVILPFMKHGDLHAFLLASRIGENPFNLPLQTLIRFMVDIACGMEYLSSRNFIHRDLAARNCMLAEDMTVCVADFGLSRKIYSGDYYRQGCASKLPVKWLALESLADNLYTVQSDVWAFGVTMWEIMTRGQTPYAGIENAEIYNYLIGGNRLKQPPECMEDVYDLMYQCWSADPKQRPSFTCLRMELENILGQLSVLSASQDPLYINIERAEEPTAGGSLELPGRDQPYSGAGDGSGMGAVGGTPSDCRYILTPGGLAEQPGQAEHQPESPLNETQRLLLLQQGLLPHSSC
Measured Kd, listed per entry for reference.

CCOc1cnn(CCn2cccn2)c1C(=O)Nc1ccc(Oc2ccnc3cc(OC)c(OC)cc23)cn1 [Compound 42]	≥ 1 µM

Turning to the following compound.
I'm curious: which Kd was measured for CCOc1cn(-c2cnccc2C)nc1C(=O)Nc1ccc(Oc2ccnc3cc(OC)c(OC)cc23)cn1 [Compound 79] tested on TYRO3 (Homo sapiens)?
< 0.1 µM

====

pKd: −log10 of the molar value.
A set of compounds tested on TYRO3 (Homo sapiens), with measured pKd:

Study these solved cases before continuing.
CCOc1cn(C2CCCN(C)C2)nc1C(=O)Nc1ccc(Oc2ccnc3cc(OC)c(OC)cc23)cc1F (stereo not shown)	6.00 to 7.00
CCOc1cn(-c2cnc(N)nc2)nc1C(=O)Nc1ccc(Oc2ccnc3cc(OC)c(OC)cc23)cn1	> 7.00
CCOc1cnn(CC)c1C(=O)Nc1ccc(Oc2ccnc3cc(OC)c(OC)cc23)cn1	≤ 6.00

Any idea what its pKd is? The compound is CCOc1cn(-c2ccc(C(F)(F)F)cc2C)nc1C(=O)Nc1ccc(Oc2ccnc3cc(OC)c(OC)cc23)cn1
6.00 to 7.00
